target_or_system: Feline FcRn (complex of FcRn-α subunit and β-microglobulin, C-terminal His tag) (feline)
Sequence (chain, as listed by the source, chain 1 of 2): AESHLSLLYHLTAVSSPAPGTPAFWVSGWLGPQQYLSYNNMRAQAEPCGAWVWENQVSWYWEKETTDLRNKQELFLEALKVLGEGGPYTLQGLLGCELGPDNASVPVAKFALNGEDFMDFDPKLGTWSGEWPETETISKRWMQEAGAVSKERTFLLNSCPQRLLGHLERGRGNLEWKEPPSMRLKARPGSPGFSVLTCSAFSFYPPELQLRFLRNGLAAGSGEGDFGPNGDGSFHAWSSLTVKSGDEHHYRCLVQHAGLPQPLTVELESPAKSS
Sequence (Q5MGS7 21-118, chain 2 of 2): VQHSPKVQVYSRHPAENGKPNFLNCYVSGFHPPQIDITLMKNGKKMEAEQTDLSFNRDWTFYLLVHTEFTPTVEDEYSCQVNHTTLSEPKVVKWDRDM
test_details: SPR Biacore, FcRn amine-coupled on CM5, pH 7.2
Recorded Kd by entry
All answers are understood in nM, so give the number only.

Reference set, count: 3
binder: mAb2 (felinized anti-NGF antibody) S428L, feline IgG1a (antibody, part only; not given: Anti-NGF heavy and light variable domains, part only) heavy, part: ASTTAPSVFPLAPSCGTTSGATVALACLVLGYFPEPVTVSWNSGALTSGVHTFPAVLQASGLYSLSSMVTVPSSRWLSDTFTCNVAHPPSNTKVDKTVRKTDHPPGPKPCDCPKCPPPEMLGGPSIFIFPPKPKDTLSISRTPEVTCLVVDLGPDDSDVQITWFVDNTQVYTAKTSPREEQFNSTYRVVSVLPILHQDWLKGKEFKCKVNSKSLPSPIERTISKAKGQPHEPQVYVLPPAQEELSRNKVSVTCLIKSFHPPDIAVEWEITGQPEPENNYRTTPPQLDSDGTYFVYSKLSVDRSHWQRGNTYTCSVLHEALHSHHTQKSLTQSPGK
value_units: nM
numeric_result: 60

binder: mAb2 (felinized anti-NGF antibody) wild-type, feline IgG1a (antibody, part only; not given: Anti-NGF heavy and light variable domains, part only) heavy, part: ASTTAPSVFPLAPSCGTTSGATVALACLVLGYFPEPVTVSWNSGALTSGVHTFPAVLQASGLYSLSSMVTVPSSRWLSDTFTCNVAHPPSNTKVDKTVRKTDHPPGPKPCDCPKCPPPEMLGGPSIFIFPPKPKDTLSISRTPEVTCLVVDLGPDDSDVQITWFVDNTQVYTAKTSPREEQFNSTYRVVSVLPILHQDWLKGKEFKCKVNSKSLPSPIERTISKAKGQPHEPQVYVLPPAQEELSRNKVSVTCLIKSFHPPDIAVEWEITGQPEPENNYRTTPPQLDSDGTYFVYSKLSVDRSHWQRGNTYTCSVSHEALHSHHTQKSLTQSPGK
value_units: nM
numeric_result: 380

binder: mAb1 (felinized anti-IL31 antibody) S428L, feline IgG1a (antibody, part only; not given: Anti-IL31 heavy and light variable domains, part only) heavy, part: ASTTAPSVFPLAPSCGTTSGATVALACLVLGYFPEPVTVSWNSGALTSGVHTFPAVLQASGLYSLSSMVTVPSSRWLSDTFTCNVAHPPSNTKVDKTVRKTDHPPGPKPCDCPKCPPPEMLGGPSIFIFPPKPKDTLSISRTPEVTCLVVDLGPDDSDVQITWFVDNTQVYTAKTSPREEQFNSTYRVVSVLPILHQDWLKGKEFKCKVNSKSLPSPIERTISKAKGQPHEPQVYVLPPAQEELSRNKVSVTCLIKSFHPPDIAVEWEITGQPEPENNYRTTPPQLDSDGTYFVYSKLSVDRSHWQRGNTYTCSVLHEALHSHHTQKSLTQSPGK
value_units: nM
numeric_result: 180

Task: Fill in the blank: the reported Kd of mAb6 (felinized anti-TGFβ antibody of Tables 1 and 2) S428L, feline IgG1a (antibody, part only; not given: Anti-TGFβ variable domains, antibody unnamed, part only) heavy, part: ASTTAPSVFPLAPSCGTTSGATVALACLVLGYFPEPVTVSWNSGALTSGVHTFPAVLQASGLYSLSSMVTVPSSRWLSDTFTCNVAHPPSNTKVDKTVRKTDHPPGPKPCDCPKCPPPEMLGGPSIFIFPPKPKDTLSISRTPEVTCLVVDLGPDDSDVQITWFVDNTQVYTAKTSPREEQFNSTYRVVSVLPILHQDWLKGKEFKCKVNSKSLPSPIERTISKAKGQPHEPQVYVLPPAQEELSRNKVSVTCLIKSFHPPDIAVEWEITGQPEPENNYRTTPPQLDSDGTYFVYSKLSVDRSHWQRGNTYTCSVLHEALHSHHTQKSLTQSPGK is ____.
Result: 230
